// data source = patent US20060105445A1

target.of.assay: quinone reductase NQO2 (Homo sapiens, UniProt P16083)
Sequence (P16083 1-231): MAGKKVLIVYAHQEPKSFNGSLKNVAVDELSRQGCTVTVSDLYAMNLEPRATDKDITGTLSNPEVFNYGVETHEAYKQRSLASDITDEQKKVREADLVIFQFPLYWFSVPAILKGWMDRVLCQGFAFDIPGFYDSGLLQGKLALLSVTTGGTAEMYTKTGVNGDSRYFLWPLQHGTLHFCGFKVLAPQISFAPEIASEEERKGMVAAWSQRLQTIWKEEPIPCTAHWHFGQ
value.kind: Ki (µM)
Report only the number, with the unit µM understood.

Query Ki on quinone reductase NQO2 (Homo sapiens, UniProt P16083) for NCCCn1cc(C2=C(c3c[nH]c4ccccc34)C(=O)NC2=O)c2ccccc21
16.5
